Target: Vascular endothelial growth factor receptor 2 (Homo sapiens, UniProt P35968)
Sequence (P35968 whole entry): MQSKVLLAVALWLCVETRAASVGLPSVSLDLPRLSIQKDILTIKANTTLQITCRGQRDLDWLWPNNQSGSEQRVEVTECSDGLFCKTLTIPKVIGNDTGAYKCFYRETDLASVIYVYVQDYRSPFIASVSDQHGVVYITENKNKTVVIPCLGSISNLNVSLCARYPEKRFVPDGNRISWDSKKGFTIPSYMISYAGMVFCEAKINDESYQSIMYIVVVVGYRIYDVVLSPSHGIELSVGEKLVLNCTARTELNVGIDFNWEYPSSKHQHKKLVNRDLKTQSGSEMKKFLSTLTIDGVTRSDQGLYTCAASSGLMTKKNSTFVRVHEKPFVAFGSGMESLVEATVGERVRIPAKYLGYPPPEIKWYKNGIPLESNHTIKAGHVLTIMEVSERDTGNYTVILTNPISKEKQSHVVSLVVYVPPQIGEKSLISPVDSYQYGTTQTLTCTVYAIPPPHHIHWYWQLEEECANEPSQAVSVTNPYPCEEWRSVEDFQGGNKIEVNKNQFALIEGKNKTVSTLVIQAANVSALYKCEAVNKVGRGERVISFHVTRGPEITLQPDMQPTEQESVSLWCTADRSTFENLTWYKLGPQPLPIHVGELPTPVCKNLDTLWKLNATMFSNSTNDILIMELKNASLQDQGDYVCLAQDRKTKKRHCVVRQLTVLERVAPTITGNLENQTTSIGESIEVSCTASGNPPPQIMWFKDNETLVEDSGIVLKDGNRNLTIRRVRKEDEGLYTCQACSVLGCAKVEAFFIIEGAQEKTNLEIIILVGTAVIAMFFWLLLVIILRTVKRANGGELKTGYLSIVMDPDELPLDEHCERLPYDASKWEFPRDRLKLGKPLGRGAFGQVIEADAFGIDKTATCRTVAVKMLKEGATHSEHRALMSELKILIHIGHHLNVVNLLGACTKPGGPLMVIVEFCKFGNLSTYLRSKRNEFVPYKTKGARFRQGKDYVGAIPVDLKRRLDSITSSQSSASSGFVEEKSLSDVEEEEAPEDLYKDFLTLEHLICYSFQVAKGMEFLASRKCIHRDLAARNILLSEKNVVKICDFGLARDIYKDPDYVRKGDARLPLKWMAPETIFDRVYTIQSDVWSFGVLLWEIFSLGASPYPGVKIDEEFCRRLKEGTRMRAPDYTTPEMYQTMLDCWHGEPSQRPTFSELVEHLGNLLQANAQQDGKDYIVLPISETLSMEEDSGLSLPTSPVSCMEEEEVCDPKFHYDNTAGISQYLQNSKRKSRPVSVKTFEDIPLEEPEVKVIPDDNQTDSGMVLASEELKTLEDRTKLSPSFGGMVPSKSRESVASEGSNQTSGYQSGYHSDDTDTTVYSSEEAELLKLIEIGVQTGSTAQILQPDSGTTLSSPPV
Assay: Inhibition of VEGFR2 (unknown origin) using poly(Glu,Tyr)4:1 as substrate in presence of [gamma-33P]-ATP after 60 mins by scintillation counting analysis
Conditions: read-out: Ki
Output 1 (yes) for records whose Ki is lower than 3 µM, 0 (no) for records at or above 3 µM.

The examples below pair each entry with its known result.
COMPOUND_STRUCTURE_STRING	CATEGORY_LABEL
COc1ccccc1CNc1nc(N)nc2[nH]c3ccc(O)cc3c12	1 (yes)
COc1cccc(CNc2nc(N)nc3[nH]c4ccc(O)cc4c23)c1	0 (no)
Cc1ccc(CNc2nc(N)nc3[nH]c4ccc(O)cc4c23)cc1	0 (no)
COc1ccccc1CNc1nc(N)nc2[nH]c3cc(C)c(O)cc3c12	0 (no)
C[C@@H](Nc1nc(N)nc2[nH]c3ccc(O)cc3c12)c1ccccc1	1 (yes)

Proceed to the following item.
Request: Given Cc1cc2[nH]c3nc(N)nc(NCc4ccccc4)c3c2cc1O , is recorded Ki strictly lower than 3 µM?
Result: 0 (no)
